- System: TO-N3-2 (biotin conjugate)
- assay-method-text: pull-down binding Z-score (relative to library population); higher = stronger binding
- assay-setup: RNA library: Library-2
pull-down binding Z-score of -0.2 or higher: condition met. Under -0.2: condition not met.

INSERT INTO assay_data (residues, cat) VALUES
  ('CAGAGUUCCCUUCUUGUGAGCUCAG [hsa-mir-6733]', 'condition met'),
  ('GCGCUGCCAGAAACUGGCUGCGC [mismatch-UU]', 'condition not met'),
  ('UGGAAGGAAUGGGAUCUACUUCCA [hsa-mir-3612]', 'condition not met'),
  ('CUUUAGGCAUUCAGAAUAGCUAAAG [hsa-mir-4662b]', 'condition not met'),
  ('GGAGAGUAUGGUCACAGCAGCAUCCUCC [hsa-mir-6780a]', 'condition met');

(Q) For this sequence, is measured pull-down binding Z-score -0.2 or higher? GGGGCUGGCUGGGUCUGGUAGUGGGCAUCAGCUGGCCCU [hsa-mir-1207]
(A) condition met

(Q) For this sequence, is measured pull-down binding Z-score -0.2 or higher? UUGAGGGACAUGGUUAAUGGAAUUGUCUCA [hsa-mir-342]
(A) condition met

(Q) For this sequence, is measured pull-down binding Z-score -0.2 or higher? GGGGCUGAGAAACCAAAGUUUC [IAV_invivo_PA_3_Motif_3+IAV_invivo_PA_3_Motif_3]
(A) condition met

(Q) For this sequence, is measured pull-down binding Z-score -0.2 or higher? ACAUUACACCAUGU [SHAPE_invivo_SARS-CoV-2_Motif_439]
(A) condition not met

(Q) For this sequence, is measured pull-down binding Z-score -0.2 or higher? UGAAUUGAAAUGCGUUACAUUCA [hsa-mir-95]
(A) condition met

(Q) For this sequence, is measured pull-down binding Z-score -0.2 or higher? AAUGUUUUAUUCUCUACAGUGUUCCCACUUACAAGUUUUGGACCACUAGUGAGAAAAAUAUU [DMSMaPseq_invitro_SARS-CoV-2_Motif_260]
(A) condition not met

(Q) For this sequence, is measured pull-down binding Z-score -0.2 or higher? UGGGGCGCGAUCAAAACAACGUCGGCCCCA
(A) condition not met

(Q) For this sequence, is measured pull-down binding Z-score -0.2 or higher? GGUCUGAGCCCAUGUGUGGACCUAGGUCUGCUGUUAAACUGACU [hsa-mir-6831]
(A) condition met
